Tested on: A2780
assayRemarks: Cytotoxicity against human A2780 cells
Format: cell-based
outcomeMeasure: pIC50
One number for each entry, as −log10 of the molar value.

## Task Which pIC50 is listed for `CC(C)=CCc1c(O)ccc([C@@]23Oc4cc(O)ccc4[C@@H]4CC(C)=C[C@@H](c5c(O)cc(-c6cc7ccc(O)cc7o6)cc5O2)[C@H]43)c1O` ?
## Result 5.92

Values were extracted from ChEMBL document CHEMBL3286347.
